B1: Azoarcus group I ribozyme (parent)
chain: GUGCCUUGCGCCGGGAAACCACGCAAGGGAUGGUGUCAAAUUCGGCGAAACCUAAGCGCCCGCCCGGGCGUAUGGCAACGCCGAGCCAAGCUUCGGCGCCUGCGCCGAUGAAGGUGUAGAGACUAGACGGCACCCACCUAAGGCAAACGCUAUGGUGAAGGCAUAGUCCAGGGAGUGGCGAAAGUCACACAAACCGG

Variants of: B1
Method summary: reverse-splicing fitness (ratio to wild type); higher = more active; in vitro selection; Mg2+ level not given
Recorded metric: reverse-splicing fitness
Please respond with just the number, no unit label.

Reference set, count: 10
{"columns": ["Residue change", "Reading"],
 "data": [
  ["C82A A111C A120C A145U C169G", 0.0102],
  ["C82G", 0.499],
  ["C82U A111G C150A C169U", 0.00979],
  ["C82U A111C A120G A145C", 0.0118],
  ["C82U A120G C150G C169U", 0.00921],
  ["C82G A111G A120C A145C C169U", 0.0144],
  ["C82G A111G A145G C150A U176G", 0.0208],
  ["C82A A111G A120C A145G U176C", 0.0327],
  ["A120G A145G U176A", 0.193],
  ["A111G A120G A145G C150A C169A", 0.0278]
]}

Consider the variant shown here: C82A A111U A120C C150G C169A What is its recorded reverse-splicing fitness?
0.0101

Next record, please: C82U A111G A120G A145C C150U C169U U176G
0.00413

Next record, please: C82U A120U C150A U176C
0.0109

Next record, please: C82A A111G A120U A145C C150G
0.00637

Next record, please: C82A A120C A145C C169A U176C
0.00953

Next record, please: C82A A111U A120U A145C C150G C169U U176C
0.00285

Next record, please: C82G A111G A120U C150A
0.00949
